- Test system: Cryptococcus neoformans
- Experiment Summary: Antifungal activity against Cryptococcus neoformans H99 after 72 hrs by broth microdilution method
- Assay type: functional
- Condition Summary: H99, 72 h
Starred links: 1 amine or outer side, 2 acyl side, 3 side chain; linkers in the order of their positions; H or OH if unused. Non-standard residues stand in square brackets, D forms with d. Residues, ends and D or L forms follow the SMILES beside them. X1 = O=C([C@H](CC1=NC=NC1)N[*:1])[*:2]
Readings of MIC for the listed molecules

Molecule	MIC (µg/mL)
N=C(N)NCCC[C@@H]1NC(=O)[C@H](CCCNC(=N)N)NC(=O)[C@H](Cc2c[nH]c3ccccc23)NC(=O)[C@H](Cc2c[nH]c3ccccc23)NC(=O)[C@H](CCCNC(=N)N)NC(=O)[C@H](Cc2ccccc2)NC(=O)[C@H](Cc2c[nH]cn2)NC(=O)CNC(=O)[C@H](Cc2c[nH]cn2)NC1=O (cyclo(FRWWRRHGH))	2
OC(Cn1cncn1)(Cn1cncn1)c1ccc(F)cc1F	2
C[C@@H]1[C@H](O)[C@@H](C)/C=C/C=C/C=C/C=C/C=C/C=C/C=C/[C@H](O[C@@H]2O[C@H](C)[C@@H](O)[C@H](N)[C@@H]2O)C[C@@H]2O[C@](O)(C[C@@H](O)C[C@@H](O)[C@H](O)CC[C@@H](O)C[C@@H](O)CC(=O)O[C@H]1C)C[C@H](O)[C@H]2C(=O)O	0.125
N=C(N)NCCC[C@@H]1NC(=O)[C@H](CCCNC(=N)N)NC(=O)[C@H](Cc2c[nH]c3ccccc23)NC(=O)[C@H](Cc2c[nH]c3ccccc23)NC(=O)[C@H](CCCNC(=N)N)NC(=O)[C@H](Cc2ccccc2)NC(=O)[C@H](Cc2c[nH]cn2)NC1=O (cyclo(FRWWRRH))	4
N=C(N)NCCC[C@@H]1NC(=O)[C@H](CCCNC(=N)N)NC(=O)[C@H](Cc2ccccc2)NC(=O)[C@H](CCCNC(=N)N)NC(=O)[C@H](Cc2c[nH]c3ccccc23)NC(=O)[C@H](Cc2c[nH]c3ccccc23)NC1=O (cyclo(RRWWRF))	4
N=C(N)NCCC[C@H](NC(=O)[C@H](Cc1c[nH]c2ccccc12)NC(=O)[C@H](Cc1c[nH]c2ccccc12)NC(=O)[C@H](CCCNC(=N)N)NC(=O)[C@H](CCCNC(=N)N)NC(=O)[C@H](CC1=NC=NC1)NC(=O)CNC(=O)[C@@H](N)Cc1c[nH]cn1)C(=O)N[C@@H](Cc1ccccc1)C(=O)O (H-HG[X1]RRWWRF-OH)	8
